Target: T1, recombinant human PD-L2 (human PD-L2 antigen) (human, UniProt Q9BQ51 20-219, limits assumed)
T1 construct: The Biacore analyte and the ELISA antigen are only called human PD-L2 antigen / recombinant hPD-L2; Whole entry named; also called hPD-L2; recombinant hPD-L2
T1 sequence (looked up): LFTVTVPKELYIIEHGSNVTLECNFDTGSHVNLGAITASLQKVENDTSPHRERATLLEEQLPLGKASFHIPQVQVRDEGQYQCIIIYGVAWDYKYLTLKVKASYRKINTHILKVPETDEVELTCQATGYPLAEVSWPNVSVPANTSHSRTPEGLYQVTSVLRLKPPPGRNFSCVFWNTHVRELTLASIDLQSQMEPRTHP
Experiment: SPR (Biacore 8K), single cycle kinetics, antibody in culture supernatant, human PD-L2 antigen
REPORTED_ENDPOINT: Relative KD (KD of variant / KD of VH0/VK0)
Give bare numbers.

Observe how each entry below is paired with its result.
| BINDER | ENDPOINT_VALUE |
| --- | --- |
| VH1/VK3 (antibody, V domains shown, hIgG1 backbone, CHO expressed) VH: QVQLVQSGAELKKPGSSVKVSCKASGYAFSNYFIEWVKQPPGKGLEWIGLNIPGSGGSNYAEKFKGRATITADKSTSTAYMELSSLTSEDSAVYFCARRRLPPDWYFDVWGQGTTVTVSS VL: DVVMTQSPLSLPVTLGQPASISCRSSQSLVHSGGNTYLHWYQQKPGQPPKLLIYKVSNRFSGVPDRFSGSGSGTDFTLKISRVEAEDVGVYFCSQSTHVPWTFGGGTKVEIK | 6.23 |
| VH7/VK3 (antibody, V domains shown, hIgG1 backbone, CHO expressed) VH: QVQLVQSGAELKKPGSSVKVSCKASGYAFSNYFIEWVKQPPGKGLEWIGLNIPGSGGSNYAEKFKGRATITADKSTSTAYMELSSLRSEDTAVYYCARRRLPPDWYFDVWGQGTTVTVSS VL: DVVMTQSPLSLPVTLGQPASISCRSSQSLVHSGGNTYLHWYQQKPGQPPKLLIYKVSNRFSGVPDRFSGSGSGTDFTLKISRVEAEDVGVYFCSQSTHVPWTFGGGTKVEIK | 6.2 |

Continue with the next binder.
INPUT: # get_value(readout='Relative KD (KD of variant / KD of VH0/VK0)', item= VH4/VK3 (antibody, V domains shown, hIgG1 backbone, CHO expressed) VH: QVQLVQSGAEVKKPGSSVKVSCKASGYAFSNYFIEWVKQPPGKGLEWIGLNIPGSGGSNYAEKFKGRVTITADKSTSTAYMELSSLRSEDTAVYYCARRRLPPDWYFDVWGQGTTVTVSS VL: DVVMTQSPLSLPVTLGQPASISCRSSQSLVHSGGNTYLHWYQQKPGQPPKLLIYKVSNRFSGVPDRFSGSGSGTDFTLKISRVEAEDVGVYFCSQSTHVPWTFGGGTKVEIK )
OUTPUT: 8.02
